Assay: Example 1: pharmacokinetics of Compound I, single (SD) and multiple (MD, q8h 7 days) ascending doses, 3-hour IV infusion, healthy adult subjects
Type: in vivo, human
Details: human, plasma, intravenous, 750 mg, 750 mg single dose
Observable: AUC(0-t) (ng·h/mL)
State just the number; it will be interpreted in ng·h/mL.

Challenge: Recorded AUC(0-t) for O=C(O)C[C@@H]1CC[C@H](NC(=O)Cc2cccs2)B(O)O1 [Compound I] , please?
Response given: 50600

###

Test: clinical
Settings: both, human, in vivo, Ratio AM to Plasma (total plasma concentration)
Method: A total of twenty-five (n=25) male and female subjects who met the study entry criteria and completed all phases of the pharmacokinetic study were included in this pharmacokinetic analysis. […] The concentration of drug (ABXAM) in the alveolar cells (AC) was determined as follows: […] The concentration ratios of ELF and AM to the simultaneous plasma concentrations were calculated for each subject and summarized for each group at each sampling time. […]
Observable: Kp at 1.5 h

Challenge: Recorded Kp at 1.5 h for `O=C(O)C[C@@H]1CC[C@H](NC(=O)Cc2cccs2)B(O)O1` , please?
Response given: 0.062
